# Tested on: 521955-158-R2-J5-PDC complex spheroid viability
# Measurement Protocol: Anticancer human tumor 521955-158-R2-J5-PDC patient-derived pancreatic carcinoma cell line growth inhibition
# Condition Info: second compound 3.16 µM; first compound 0.0316 µM; stronger effect = lower value

Compound	Reading Unit	viability, T/C
Cn1ncnc1C1c2n[nH]c(=O)c3cc(F)cc(c23)NC1c1ccc(F)cc1 (stereo unspecified) + NC1CCC(NC2CC2c2ccccc2)CC1	%	85.2
CC(C)c1c(-c2ccccc2)nc2c(C#N)c[nH]n2c1=O + NC1CCC(NC2CC2c2ccccc2)CC1	%	90
Nc1ncn(C2CC(O)C(CO)O2)c(=O)n1 (stereo unspecified) + NC1CC1c1ccc(-c2cccc(O)c2)cc1	%	82.2
CC1COCCN1c1cc(C2(S(C)(=N)=O)CC2)nc(-c2ccnc3[nH]ccc23)n1 (stereo unspecified) + NC1CC1c1ccc(-c2cccc(O)c2)cc1	%	81
CC1COCCN1c1cc(-c2ccnn2C)c2ccnc(-c3ccn[nH]3)c2n1 (stereo unspecified) + NC1CC1c1ccc(-c2cccc(O)c2)cc1	%	21.1
COc1ccc([C@@H](O)c2cc(-c3ncnc4cc(N5CCOCC5)ccc34)c(F)cc2Cl)nn1 + NC1CC1c1ccc(-c2cccc(O)c2)cc1	%	74.5

* * *

# Test system: 521955-158-R2-J5-PDC complex spheroid viability
# Measurement Protocol: Anticancer human tumor 521955-158-R2-J5-PDC cell line growth inhibition;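 further: spheroids exposed to agents for seven days; percent of DMSO vehicle control luminescence viability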
# Condition Info: second compound 1 µM; first compound 0.000949 µM; stronger effect = lower value
# Source text: Multicellular complex tumor spheroid response to LSD1 Inhibitor Iadademstat in combination with a variety of drugs and investigational agents in selected tumor cell lines The current study was undertaken to assess response to LSD1 inhibitors in combination with standard-of-care drugs and investigational agents in solid tumor complex spheroid models as well as in the K-562 leukemia. […] Compounds. […] If the clinical Cmax for an agent had not been determined, the highest concentration tested was 10 microM. […]
Binarize viability, T/C at 90%; below is true, at or above is false.

Compound	Cat
Nc1ccn(C2OC(CO)C(O)C2(F)F)c(=O)n1 (stereo unspecified) + NC1CCC(NC2CC2c2ccccc2)CC1	false
CCc1c2c(nc3ccc(O)cc13)-c1cc3c(c(=O)n1C2)COC(=O)[C@]3(O)CC + NC1CCC(NC2CC2c2ccccc2)CC1	true
Nc1ncn(C2CC(O)C(CO)S2)c(=O)n1 (stereo unspecified) + NC1CC1c1ccc(-c2cccc(O)c2)cc1	false
CCc1c2c(nc3ccc(O)cc13)-c1cc3c(c(=O)n1C2)COC(=O)[C@]3(O)CC + NC1CC1c1ccc(-c2cccc(O)c2)cc1	true

* * *

# Tested on: 521955-158-R2-J5-PDC complex spheroid viability
# Measurement Protocol: Anticancer human tumor 521955-158-R2-J5-PDC cell line growth inhibition;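 further: spheroids exposed to agents for seven days; percent of DMSO vehicle control luminescence viability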
# Condition Info: second compound 1 µM; first compound 0.0316 µM; stronger effect = lower value

Molecule	Target Of Assay	viability, T/C / %
O=C(c1cc(Cc2n[nH]c(=O)c3ccccc23)ccc1F)N1CCN(C(=O)C2CC2)CC1 + NC1CC1c1ccc(-c2cccc(O)c2)cc1	521955-158-R2-J5-PDC complex spheroid viability	77.9
CC(C)c1c(-c2ccccc2)nc2c(C#N)c[nH]n2c1=O + NC1CCC(NC2CC2c2ccccc2)CC1	521955-158-R2-J5-PDC complex spheroid viability	86.3
CC[C@@]1(O)C(=O)OCc2c1cc1n(c2=O)Cc2cc3c(CN(C)C)c(O)ccc3nc2-1 + NC1CC1c1ccc(-c2cccc(O)c2)cc1	521955-158-R2-J5-PDC complex spheroid viability	16.4
CC1COCCN1c1cc(-c2ccnn2C)c2ccnc(-c3ccn[nH]3)c2n1 (centres undefined) + NC1CCC(NC2CC2c2ccccc2)CC1	521955-158-R2-J5-PDC complex spheroid viability	16.7
O=C(C=Cn1cnc(-c2cc(C(F)(F)F)cc(C(F)(F)F)c2)n1)NNc1cnccn1 + NC1CCC(NC2CC2c2ccccc2)CC1	521955-158-R2-J5-PDC complex spheroid viability	52.4
CC1COCCN1c1cc(-c2ccnn2C)c2ccnc(-c3ccn[nH]3)c2n1 (centres undefined) + NC1CC1c1ccc(-c2cccc(O)c2)cc1	521955-158-R2-J5-PDC complex spheroid viability	18.9
CC1(C)CCC(CN2CCN(c3ccc(C(=O)NS(=O)(=O)c4ccc(NCC5CCOCC5)c([N+](=O)[O-])c4)c(Oc4cnc5[nH]ccc5c4)c3)CC2)=C(c2ccc(Cl)cc2)C1 + NC1CC1c1ccc(-c2cccc(O)c2)cc1	521955-158-R2-J5-PDC complex spheroid viability	82
COc1cc(Nc2ncc3c(n2)-c2ccc(Cl)cc2C(c2c(F)cccc2OC)=NC3)ccc1C(=O)O + NC1CC1c1ccc(-c2cccc(O)c2)cc1	521955-158-R2-J5-PDC complex spheroid viability	65.6
Nc1ncn(C2CC(O)C(CO)O2)c(=O)n1 (centres undefined) + NC1CC1c1ccc(-c2cccc(O)c2)cc1	521955-158-R2-J5-PDC complex spheroid viability	86.6
CC[C@@]1(O)C(=O)OCc2c1cc1n(c2=O)Cc2cc3c(CN(C)C)c(O)ccc3nc2-1 + NC1CCC(NC2CC2c2ccccc2)CC1	521955-158-R2-J5-PDC complex spheroid viability	6.84
Cn1ncnc1C1c2n[nH]c(=O)c3cc(F)cc(c23)NC1c1ccc(F)cc1 (centres undefined) + NC1CCC(NC2CC2c2ccccc2)CC1	521955-158-R2-J5-PDC complex spheroid viability	81.8
CC(C)c1c(-c2ccccc2)nc2c(C#N)c[nH]n2c1=O + NC1CC1c1ccc(-c2cccc(O)c2)cc1	521955-158-R2-J5-PDC complex spheroid viability	65.5
COc1ccc([C@@H](O)c2cc(-c3ncnc4cc(N5CCOCC5)ccc34)c(F)cc2Cl)nn1 + NC1CC1c1ccc(-c2cccc(O)c2)cc1	521955-158-R2-J5-PDC complex spheroid viability	76.1
COc1cc(Nc2ncc3c(n2)-c2ccc(Cl)cc2C(c2c(F)cccc2OC)=NC3)ccc1C(=O)O + NC1CCC(NC2CC2c2ccccc2)CC1	521955-158-R2-J5-PDC complex spheroid viability	51.5
